assay: Oral bioavailability in female BALB/c mouse at 20 mg/kg measured after 24 hrs by LC-MS/MS analysis; format: ADME, organism-based; conditions: in vivo
assay endpoint: bioavailability (%)
Numeric answer only, unit % assumed.

So what does the record say about bioavailability for "Cn1cc(-c2nc(N3CCOCC3)c3sc(CN4CCC(C(C)(C)O)CC4)cc3n2)c2cc[nH]c2c1=O" ?
74.8

* * *

biological target: Phosphatidylinositol 4,5-bisphosphate 3-kinase catalytic subunit beta isoform (Homo sapiens, UniProt P42338); test: Inhibition of PI3Kbeta (unknown origin) incubated for 2 hrs in presence of ATP by ADP-kinaseGlo reagent based assay
Sequence (P42338 whole entry, canonical isoform): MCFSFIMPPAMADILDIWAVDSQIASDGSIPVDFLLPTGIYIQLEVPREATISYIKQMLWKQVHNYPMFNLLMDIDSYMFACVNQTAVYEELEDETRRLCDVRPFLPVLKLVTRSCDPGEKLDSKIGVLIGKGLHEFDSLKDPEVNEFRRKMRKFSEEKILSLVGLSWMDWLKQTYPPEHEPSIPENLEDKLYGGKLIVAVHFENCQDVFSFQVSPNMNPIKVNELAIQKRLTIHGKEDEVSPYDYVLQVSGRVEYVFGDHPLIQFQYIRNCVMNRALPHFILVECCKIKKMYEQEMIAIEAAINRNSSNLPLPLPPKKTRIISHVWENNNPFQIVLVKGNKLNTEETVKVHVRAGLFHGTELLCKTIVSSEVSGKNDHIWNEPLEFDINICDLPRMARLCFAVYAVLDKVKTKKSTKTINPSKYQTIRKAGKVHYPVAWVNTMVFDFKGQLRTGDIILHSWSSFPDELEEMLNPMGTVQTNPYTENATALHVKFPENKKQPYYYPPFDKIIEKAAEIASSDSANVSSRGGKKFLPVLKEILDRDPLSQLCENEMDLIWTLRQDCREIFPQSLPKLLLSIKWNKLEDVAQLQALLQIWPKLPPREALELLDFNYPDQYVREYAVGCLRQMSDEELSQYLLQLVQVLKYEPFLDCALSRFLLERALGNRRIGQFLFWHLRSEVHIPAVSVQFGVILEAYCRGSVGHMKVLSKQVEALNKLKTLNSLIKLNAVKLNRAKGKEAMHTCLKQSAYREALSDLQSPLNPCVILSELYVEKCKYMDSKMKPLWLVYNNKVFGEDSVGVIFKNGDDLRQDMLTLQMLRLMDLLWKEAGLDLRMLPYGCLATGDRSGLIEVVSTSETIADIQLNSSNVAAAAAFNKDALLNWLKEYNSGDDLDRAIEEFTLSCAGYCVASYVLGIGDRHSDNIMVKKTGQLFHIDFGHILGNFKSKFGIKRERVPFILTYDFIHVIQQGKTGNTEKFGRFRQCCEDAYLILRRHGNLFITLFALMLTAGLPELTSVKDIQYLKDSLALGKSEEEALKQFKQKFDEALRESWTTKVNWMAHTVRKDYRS
assay endpoint: IC50 (µM)
// return numeric value only (unit: µM, not printed)

Sample "O=c1cc(N2CCOCC2)oc2c(-c3ccc4c(c3)OCCO4)csc12" — what was its IC50?
0.129

Please give the result for "Cn1cc(-c2nc(N3CCOCC3)c3sc(CN4CCC(C(C)(C)O)CC4)cc3n2)c2cc[nH]c2c1=O" too.
4.75

* * *

biological target: Bromodomain-containing protein 4 (Homo sapiens, UniProt O60885); assay: Inhibition of His-tagged BRD4-BD1 (unknown origin) incubated for 30 mins in presence of ATP by Alphascreen assay
assay endpoint: pIC50
The scale used: pIC50 is minus the common logarithm of the concentration in molar units.

Consider the molecule shown here: "CC(=O)N1CCN(Cc2cc3nc(-c4cn(C)c(=O)c5[nH]ccc45)nc(N4CCOCC4)c3s2)CC1" What is its recorded pIC50?
7.96

Moving on to "C[C@H](O)C(=O)N1CCN(Cc2cc3nc(-c4cn(C)c(=O)c5[nH]ccc45)nc(N4CCOCC4)c3s2)CC1"
7.96

Lookup "Cn1cc(-c2nc(N3CCOCC3)c3sc(CN4CCC(C(C)(C)O)CC4)cc3n2)c2cc[nH]c2c1=O"
7.72

Try the molecule "CCS(=O)(=O)Nc1ccc(Oc2ccc(F)cc2F)c(-c2cn(C)c(=O)c3[nH]ccc23)c1"
9.14

Subsequent entry: "O=c1cc(N2CCOCC2)oc2c(-c3ccc4c(c3)OCCO4)csc12"
6.51

Here is the next molecule: "Cn1cc(-c2nc(N3CCOCC3)c3sc(CN4CCN(S(C)(=O)=O)CC4)cc3n2)c2cc[nH]c2c1=O"
7.82

Input "Cn1cc(-c2nc(N3CCOCC3)c3sc(CN4CCN(CC5CC5)CC4)cc3n2)c2cc[nH]c2c1=O"
8.11

* * *

molecular target: PI3-kinase p110-delta/p85-alpha (Homo sapiens, UniProt O00329); experiment: Inhibition of p110delta/p85alpha (unknown origin) incubated for 2 hrs in presence of ATP by ADP-kinaseGlo reagent based assay
Sequence (P27986 whole entry): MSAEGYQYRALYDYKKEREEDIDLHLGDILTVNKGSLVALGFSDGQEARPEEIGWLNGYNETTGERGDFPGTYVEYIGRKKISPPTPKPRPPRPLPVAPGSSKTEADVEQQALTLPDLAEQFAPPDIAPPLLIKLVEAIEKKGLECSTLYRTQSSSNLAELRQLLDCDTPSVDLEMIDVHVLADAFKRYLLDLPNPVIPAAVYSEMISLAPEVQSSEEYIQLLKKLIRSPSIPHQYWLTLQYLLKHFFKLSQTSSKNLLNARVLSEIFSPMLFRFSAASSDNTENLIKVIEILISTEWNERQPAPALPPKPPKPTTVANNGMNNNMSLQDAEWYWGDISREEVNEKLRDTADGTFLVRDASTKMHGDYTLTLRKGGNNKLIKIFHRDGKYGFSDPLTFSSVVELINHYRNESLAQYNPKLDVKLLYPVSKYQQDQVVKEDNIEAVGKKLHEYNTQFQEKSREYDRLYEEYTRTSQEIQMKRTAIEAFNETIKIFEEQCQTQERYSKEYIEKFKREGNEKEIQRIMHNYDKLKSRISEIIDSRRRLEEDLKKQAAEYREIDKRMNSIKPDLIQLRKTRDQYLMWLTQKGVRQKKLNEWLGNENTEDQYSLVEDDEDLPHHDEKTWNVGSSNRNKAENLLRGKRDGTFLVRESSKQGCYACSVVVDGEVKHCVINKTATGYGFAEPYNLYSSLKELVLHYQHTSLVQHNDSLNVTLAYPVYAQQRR
Sequence (O00329 whole entry): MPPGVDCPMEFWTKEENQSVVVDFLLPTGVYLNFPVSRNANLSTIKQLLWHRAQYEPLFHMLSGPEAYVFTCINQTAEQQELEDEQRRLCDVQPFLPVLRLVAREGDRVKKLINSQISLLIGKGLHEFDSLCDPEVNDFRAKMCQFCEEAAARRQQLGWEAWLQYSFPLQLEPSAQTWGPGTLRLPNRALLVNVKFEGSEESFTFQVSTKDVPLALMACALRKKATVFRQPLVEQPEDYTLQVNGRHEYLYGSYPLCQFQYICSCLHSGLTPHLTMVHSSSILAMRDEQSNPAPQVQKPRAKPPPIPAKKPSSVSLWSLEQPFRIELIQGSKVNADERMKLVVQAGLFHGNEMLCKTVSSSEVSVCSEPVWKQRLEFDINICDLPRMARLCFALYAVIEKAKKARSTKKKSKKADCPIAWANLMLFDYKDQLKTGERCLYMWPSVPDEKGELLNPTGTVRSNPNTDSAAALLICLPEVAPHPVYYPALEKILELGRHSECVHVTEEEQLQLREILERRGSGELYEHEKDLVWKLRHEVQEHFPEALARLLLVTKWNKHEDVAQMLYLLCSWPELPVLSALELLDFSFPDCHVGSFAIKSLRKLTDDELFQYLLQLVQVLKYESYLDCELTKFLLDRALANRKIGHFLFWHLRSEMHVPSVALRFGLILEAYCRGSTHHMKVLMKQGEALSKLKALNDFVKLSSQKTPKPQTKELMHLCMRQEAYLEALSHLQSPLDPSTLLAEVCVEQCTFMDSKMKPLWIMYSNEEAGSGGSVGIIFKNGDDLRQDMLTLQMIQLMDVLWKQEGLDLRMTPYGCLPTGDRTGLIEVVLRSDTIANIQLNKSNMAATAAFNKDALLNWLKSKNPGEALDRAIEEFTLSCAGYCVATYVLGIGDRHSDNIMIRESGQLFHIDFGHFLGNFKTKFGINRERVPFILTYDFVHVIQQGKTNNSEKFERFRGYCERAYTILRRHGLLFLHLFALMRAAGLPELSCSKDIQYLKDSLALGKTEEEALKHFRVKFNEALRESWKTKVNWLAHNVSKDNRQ
Record form. Attribute: IC50. Fill in for each entry.
Supply the numeric figure in nM, leaving out any unit text.

Return reported IC50; argument: "Fc1ccc2[nH]ccc2c1-c1nc(N2CCOCC2)c2sc(CN3CCN(CC4CC4)CC3)cc2n1"
23

Same lookup for "Cn1cc(-c2nc(N3CCOCC3)c3sc(CN4CCC(C(C)(C)O)CC4)cc3n2)c2cc[nH]c2c1=O" , please.
112

Input "C[C@H](O)C(=O)N1CCN(Cc2cc3nc(-c4cn(C)c(=O)c5[nH]ccc45)nc(N4CCOCC4)c3s2)CC1"
206

Here is the next compound: "O=c1cc(N2CCOCC2)oc2c(-c3ccc4c(c3)OCCO4)csc12"
158

Further, for "Cn1cc(-c2nc(N3CCOCC3)c3sc(CN4CCN(CC5CC5)CC4)cc3n2)c2cc[nH]c2c1=O" ?
464

Now the compound "CC(=O)N1CCN(Cc2cc3nc(-c4cn(C)c(=O)c5[nH]ccc45)nc(N4CCOCC4)c3s2)CC1"
108

Try this compound too: "Cn1cc(-c2nc(N3CCOCC3)c3sc(CN4CCN(S(C)(=O)=O)CC4)cc3n2)c2cc[nH]c2c1=O"
96
